- TARGET ENTITY: 5-hydroxytryptamine receptor 7 (Homo sapiens, UniProt P34969)
- Sequence (P34969 whole entry): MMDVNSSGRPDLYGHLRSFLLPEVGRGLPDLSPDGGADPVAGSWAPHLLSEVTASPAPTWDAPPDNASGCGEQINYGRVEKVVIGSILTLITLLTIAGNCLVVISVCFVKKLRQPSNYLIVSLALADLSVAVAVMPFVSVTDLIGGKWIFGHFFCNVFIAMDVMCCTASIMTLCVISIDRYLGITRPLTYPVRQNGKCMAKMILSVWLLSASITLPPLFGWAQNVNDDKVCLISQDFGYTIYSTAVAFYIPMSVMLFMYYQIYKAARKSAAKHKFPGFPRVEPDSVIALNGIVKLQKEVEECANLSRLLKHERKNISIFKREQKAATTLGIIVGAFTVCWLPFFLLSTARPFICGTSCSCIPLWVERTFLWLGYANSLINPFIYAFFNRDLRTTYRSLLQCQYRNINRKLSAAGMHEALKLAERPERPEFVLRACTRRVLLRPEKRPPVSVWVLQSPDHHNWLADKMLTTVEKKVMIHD
MEASURED QUANTITY: Ki (nM)
Return type: number; implicit unit nM.

Data request: Please give the measured Ki for this molecule: Cc1nc(NCCOc2ccccc2)nc(N[C@@H](C)c2ccccc2)n1
Data returned: 54

---

- TARGET ENTITY: Adrenergic receptor alpha-1 (Homo sapiens, UniProt P35348+P25100+P35368)
- PROTOCOL SUMMARY: Binding affinity against Alpha1 adrenergic receptor
- Assay type: protein assay
Reported Ki values for a set of compounds
Give just the numeric value; nM need not be written.

Data request: Entry under review: C[C@H](Nc1nc(N)nc(NCCOc2ccccc2)n1)c1ccccc1 . Reported Ki?
Data returned: 300

Data request: Can you share its Ki? I mean this compound: C[C@H](Nc1nc(N)nc(NCCOc2ccc(F)cc2)n1)c1ccc(F)cc1
Data returned: 100

Data request: Give the measured Ki of C[C@H](Nc1nc(N)nc(NCCc2ccc(F)cc2)n1)c1ccc(F)cc1 .
Data returned: 200
